Procedure Details: chemical genetic growth profiling, strain panel (AID 1159580);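 note: tested at 20 µM; growth read once vehicle control cultures reached saturation at 30 °C; lower values mean less growth of the strain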
Setup Conditions: S. cerevisiae deletion strains, growth OD, locus YJL095W, strain BCK1 (second series)
Screen size: about 5,500 compounds; about 2,000 (36%) were called active. Roughly 18% stayed inconclusive and do not appear here. Cut-off read from the data, not from the text of the source: active = normalized growth mostly below about 0.91 (no sharp cut-off); inconclusive = no clear call, values can overlap the other calls; inactive = mostly above about 0.92. The list shows a part of the results.
Allowed answers: active, inactive

Query: Per the records of this test, what outcome belongs to C=CC(C1=CC(=O)C=CC1=O)c1ccccc1 (configuration not stated) ?
Reply: inactive

Query: Cc1occc(=O)c1O ?
Reply: inactive

Query: And Nc1ccc(S(=O)(=O)Nc2ccccn2)cc1 ?
Reply: inactive

Query: Param item: CO[C@H]1/C=C/O[C@@]2(C)Oc3c(C)c(O)c4c(O)c(c(/C=N/N5CCN(C)CC5)c(O)c4c3C2=O)NC(=O)/C(C)=C\C=C\C(C)[C@H](O)[C@@H](C)[C@@H](O)[C@@H](C)[C@@H](OC(C)=O)[C@@H]1C (some centres not stated)
Reply: inactive

Query: Another compound: NC[C@H](O)c1ccc(O)c(O)c1
Reply: inactive

Query: Cool, now COc1c2c(cc3c1OCO3)CCN(C)C2
Reply: inactive
